- target: T1, PACE4, P29122
- T1 chain: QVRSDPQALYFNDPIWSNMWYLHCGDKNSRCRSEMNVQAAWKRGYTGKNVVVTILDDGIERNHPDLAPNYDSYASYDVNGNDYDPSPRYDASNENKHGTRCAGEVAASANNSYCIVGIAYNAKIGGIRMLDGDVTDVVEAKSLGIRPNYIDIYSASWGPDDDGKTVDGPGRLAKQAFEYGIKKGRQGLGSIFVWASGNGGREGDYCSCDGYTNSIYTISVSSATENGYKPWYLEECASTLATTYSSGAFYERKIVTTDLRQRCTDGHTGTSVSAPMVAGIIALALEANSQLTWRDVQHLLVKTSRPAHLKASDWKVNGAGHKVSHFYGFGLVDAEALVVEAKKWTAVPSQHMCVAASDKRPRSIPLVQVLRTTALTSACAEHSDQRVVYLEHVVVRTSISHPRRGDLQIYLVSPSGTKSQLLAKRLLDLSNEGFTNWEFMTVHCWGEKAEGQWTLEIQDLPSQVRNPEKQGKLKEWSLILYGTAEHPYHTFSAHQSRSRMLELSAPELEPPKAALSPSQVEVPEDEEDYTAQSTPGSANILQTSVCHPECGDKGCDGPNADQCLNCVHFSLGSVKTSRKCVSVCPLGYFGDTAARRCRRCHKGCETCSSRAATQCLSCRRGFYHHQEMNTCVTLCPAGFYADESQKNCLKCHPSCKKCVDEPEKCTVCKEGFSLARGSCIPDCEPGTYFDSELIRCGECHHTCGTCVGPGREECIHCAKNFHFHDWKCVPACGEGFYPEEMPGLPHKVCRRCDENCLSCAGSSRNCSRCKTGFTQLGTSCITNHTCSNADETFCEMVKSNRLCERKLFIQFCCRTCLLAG
- conditionDescription: modification not given
pKi: −log10 of the molar value.
measuredQuantity: pKi

query: Sample RRRR [Tetra-L-arginine] — what was its pKi?
result: < 3.70
